IC50 values recorded for UniProt:P43405
measure name: IC50

{"compound": "O=C1Nc2cc(Nc3nc4c(Cl)nccn4n3)ccc2OC1(F)F", "observed value": "0.3 to 3 µM"}
{"compound": "Cc1cc(C)cc(Nc2nc3c(-c4ccccc4)nccn3n2)c1", "observed value": "0.3 to 3 µM"}
{"compound": "Cc1cc(C)cc(Nc2nc3c(NCCCN4CCOCC4)nccn3n2)c1", "observed value": "3 to 50 µM"}
{"compound": "COc1cc(Nc2nccn3nc(Nc4ccc(Sc5nccn5C)c(Cl)c4)nc23)cc(OC)c1", "observed value": "3 to 50 µM"}
{"compound": "CN1CCN(c2ccc(Nc3nc4c(-c5ccc6c(cnn6C)c5)nccn4n3)cc2)CC1", "observed value": "< 0.3 µM"}
{"compound": "Cc1cccc(Nc2nc3c(NCCCN(C)C)nccn3n2)c1", "observed value": "3 to 50 µM"}
{"compound": "COc1cc(Nc2nc3c(Cl)nccn3n2)cc(OC)c1", "observed value": "3 to 50 µM"}
{"compound": "COc1cc(OC)cc(-c2nccn3nc(Nc4cccc(C)c4)nc23)c1", "observed value": "0.3 to 3 µM"}
{"compound": "Cc1cccc(Nc2nc3c(-c4ccccc4)nccn3n2)c1", "observed value": "0.3 to 3 µM"}
{"compound": "c1ccc(Cn2ncc3ccc(Nc4nc5c(-c6nccs6)nccn5n4)cc32)cc1", "observed value": "0.3 to 3 µM"}
{"compound": "Cc1cc(C)cc(Nc2nc3c(NCCCN4CCN(C)CC4)nccn3n2)c1", "observed value": "3 to 50 µM"}
{"compound": "CN1CCN(c2ccc(Nc3nc4c(-c5cnc6ccccc6c5)nccn4n3)cc2)CC1", "observed value": "< 0.3 µM"}
{"compound": "FC(F)(F)c1cccc(Nc2nccn3nc(Nc4ccccc4)nc23)c1", "observed value": "3 to 50 µM"}
{"compound": "c1cnc2cc(-c3nccn4nc(Nc5ccc(N6CCOCC6)cc5)nc34)ccc2c1", "observed value": "< 0.3 µM"}
{"compound": "c1ccc(Nc2nc3c(-c4nccs4)nccn3n2)cc1", "observed value": "3 to 50 µM"}
{"compound": "Cc1cc(C)cc(Nc2nc3c(NC4CCCCC4N)nccn3n2)c1 (centres unmarked)", "observed value": "3 to 50 µM"}
{"compound": "COc1cc(Nc2nc3c(-c4cccc(CN)c4)nccn3n2)cc(OC)c1", "observed value": "< 0.3 µM"}
{"compound": "Cc1c(N)cccc1-c1nccn2nc(Nc3ccc(N4CCOCC4)cc3)nc12", "observed value": "0.3 to 3 µM"}
{"compound": "Cc1nc2cc(Nc3nc4c(-c5cnn(C)c5)nccn4n3)ccc2[nH]1 [Example D1]", "observed value": "< 0.3 µM"}
{"compound": "COc1cc(Nc2nc3c(-c4ccc(C(C)(C)C#N)cc4)nccn3n2)cc(OC)c1", "observed value": "< 0.3 µM"}
{"compound": "COCCCNc1nccn2nc(Nc3cccc(C)c3)nc12", "observed value": "3 to 50 µM"}
{"compound": "COc1cc(Nc2nc3c(-c4ccc5cccnc5c4)nccn3n2)cc(OC)c1", "observed value": "< 0.3 µM"}
{"compound": "COc1cc(Nc2nc3c(NCCCN4CCN(C)CC4)nccn3n2)cc(OC)c1", "observed value": "3 to 50 µM"}

====

pIC50: −log10 of the molar value.
pIC50 values recorded for KDR (Homo sapiens)
measure name: pIC50

{"molecule": "Cc1cccc(Nc2nc3c(-c4ccccc4)nccn3n2)c1 [Example C1]", "measure name": "pIC50", "observed value": "> 6.52"}
{"molecule": "COc1cc(Nc2nc3c(NCCCN4CCOCC4)nccn3n2)cc(OC)c1 [Example C39]", "measure name": "pIC50", "observed value": "4.30 to 5.52"}
{"molecule": "Cc1cc(C)cc(Nc2nc3c(-c4cccnc4)nccn3n2)c1 [Example C4]", "measure name": "pIC50", "observed value": "5.52 to 6.52"}
{"molecule": "COc1cc(OC)cc(-c2nccn3nc(Nc4ccc(Sc5nccn5C)c(Cl)c4)nc23)c1 [Example C25]", "measure name": "pIC50", "observed value": "4.30 to 5.52"}
{"molecule": "COc1cc(Nc2nc3c(-c4cccc(C(N)=O)c4)nccn3n2)cc(OC)c1 [Example C276]", "measure name": "pIC50", "observed value": "> 6.52"}
